# Tested on: RPMI-8226
# Test details: NCI 60 cell line screen (SRB), Leukemia
# Format: cell-based
# Conditions: RPMI-8226 (Leukemia)
Outcome measure: Log10TGI (M)

Compound	Outcome measure	Limit operator	Recorded result
COC1OC2(C)CCC3CCCC(CCOC(=O)c4cccc(C(=O)OCCC5CCCC6CCC7(C)OOC56C(OC)O7)c4)C31OO2 (centres unmarked)	Log10TGI	=	−5.73
COC1OC2(C)CCC3CCCC(CCOC(=O)c4ccc(C(=O)OCCC5CCCC6CCC7(C)OOC56C(OC)O7)cc4)C31OO2 (centres unmarked)	Log10TGI	=	−5.10
COC1OC2(C)CCC3CCCC(CCOCCC4CCCC5CCC6(C)OOC45C(OC)O6)C31OO2 (centres unmarked)	Log10TGI	=	−5.47
C[C@@H]1CC[C@H]2[C@@H](C)C(=O)O[C@@H]3O[C@@]4(C)CC[C@@H]1[C@]32OO4 [QHS, reference compound]	Log10TGI	>	−4.00
CC(=O)O[C@H]1C(=O)[C@@]2(C)[C@H]([C@H](OC(=O)c3ccccc3)[C@]3(O)C[C@H](OC(=O)[C@H](O)[C@@H](NC(=O)c4ccccc4)c4ccccc4)C(C)=C1C3(C)C)[C@]1(OC(C)=O)CO[C@@H]1C[C@@H]2O [Paclitaxel, paclitaxel, reference compound]	Log10TGI	>	−4.00

Ref: patent USRE38117E1
